- Measured on: HLA-A*03:01
- Measurement description: IEDB peptide-MHC binding, purified MHC/competitive/radioactivity; bounds were set here for any values at or beyond the usual limits of such assays
- Conditions: source organism: Human immunodeficiency virus type 1 (JRCSF ISOLATE)
pIC50: −log10 of the molar value.
Experimental endpoint: pIC50

Chain sequence | Measured on | Measured
TIKIGGQLK | HLA-A*03:01 | 7.39
AVFIHNFKR | HLA-A*03:01 | 7.19
QMVHQAISPR | HLA-A*03:01 | 6.37
MAVFIHNFK | HLA-A*03:01 | 6.19
NTPVFAIKK | HLA-A*03:01 | 6.48
TTLFCASDAK | HLA-A*03:01 | 6.92
MVHQAISPR | HLA-A*03:01 | 7.21
AIFQSSMTK | HLA-A*03:01 | 8.00
KIQNFRVYYR | HLA-A*03:01 | 6.46
TLFCASDAK | HLA-A*03:01 | 6.93
YLAWVPAHK | HLA-A*03:01 | 6.84
QMAVFIHNFK | HLA-A*03:01 | 8.04
